Collected set of Ki measured with Protein kinase C theta type (Homo sapiens, UniProt Q04759) across studies.

Below are worked cases with known answers.
CC(C)(O)[C@H]1CN(c2cccc(-c3n[nH]c4ncccc34)n2)CCN1 ... < 50 nM
O=c1[nH]c2cnc(NCC3CCNC3)nc2n1Cc1ccccc1F (centres unmarked) ... < 1000 nM

(Q) Entry CC(C)CC1CCCN(c2ccc(C(F)(F)F)c(-c3n[nH]c4ncccc34)n2)C1 (centres unmarked) : reported Ki = ?
(A) > 700 nM

(Q) Entry Fc1ccc(CNc2ncc3nc(-c4c(F)cccc4Cl)n(C[C@H]4CCNC4)c3n2)cc1F : reported Ki = ?
(A) < 1000 nM

(Q) Entry CC(C)(N)CNc1cccc(-c2n[nH]c3ncccc23)n1 : reported Ki = ?
(A) < 50 nM

(Q) Entry CC(C)C[C@H]1CN(c2cc(C(F)(F)F)cc(-c3n[nH]c4ncccc34)n2)CCN1 : reported Ki = ?
(A) < 500 nM

(Q) Entry Fc1ccc(CNc2ncc3nc(-c4c(F)cccc4Cl)n(CC4CCNC4)c3n2)cc1Cl (centres unmarked) : reported Ki = ?
(A) < 1000 nM

(Q) Entry CC(C)C[C@@H]1CN(c2ccc(C(F)(F)F)c(-c3n[nH]c4ncccc34)n2)CCN1 : reported Ki = ?
(A) < 500 nM

* * *

Collected set of pKi measured with UniProt:Q04759 across studies.
pKi: −log10 of the molar value.

Below are worked cases with known answers.
OCCNc1cccc(-c2n[nH]c3ncccc23)n1 ... < 6.15
COC[C@H]1CN(c2cccc(-c3n[nH]c4ncccc34)n2)CCN1 ... > 7.30
OC1(C2CN(c3cccc(-c4n[nH]c5ncccc45)n3)CCN2)COC1 (stereo not drawn) ... < 6.15
CCOc1ncnc2[nH]nc(-c3cccc(N4CCNC(CC(C)C)C4)n3)c12 (stereo not drawn) ... > 5.55
O=c1[nH]c2cnc(NCC3CCNCC3)nc2n1Cc1c(Cl)cccc1Cl ... > 6.00

(Q) Entry Cc1ccc(-c2n[nH]c3ncccc23)nc1N1CCN[C@@H](CC(C)C)C1 : reported pKi = ?
(A) > 6.30

(Q) Entry c1cnc2[nH]nc(-c3nn(C4CCNCC4)c4ccccc34)c2c1 : reported pKi = ?
(A) > 6.30

(Q) Entry FC(F)(F)c1ccc(N2CCCNCC2)nc1-c1n[nH]c2ncccc12 : reported pKi = ?
(A) > 6.30

(Q) Entry O=c1[nH]c2cnc(NC[C@@H]3CCNC3)nc2n1Cc1cccc(Cl)c1Cl : reported pKi = ?
(A) > 7.00

* * *

Collected set of Ki measured with UniProtKB Q04759 across studies.

Cc1ccccc1C1CN(c2cccc(-c3n[nH]c4ncccc34)n2)CCN1 (centres unmarked) ... < 50 nM
FC(F)(F)c1ccc(NCC2CCCN2)nc1-c1n[nH]c2ncccc12 (centres unmarked) ... > 700 nM
FC(F)(F)c1ccc(OCCC2CCCCN2)nc1-c1n[nH]c2ncccc12 (centres unmarked) ... > 700 nM
CC(C)(C)OC(=O)N1CCCN(c2nccc(C(=O)c3cccnc3N)n2)CC1 ... 500 to 2800 nM

(Q) Entry CC(C)C(C)(N)C1CCCN(c2ccc(F)c(-c3n[nH]c4ncccc34)n2)C1 (centres unmarked) : reported Ki = ?
(A) < 500 nM

(Q) Entry NC1CCN(c2cc(C(F)(F)F)cc(-c3n[nH]c4ncccc34)n2)CC1 : reported Ki = ?
(A) < 500 nM

(Q) Entry CC1CN(c2ccc(C(F)(F)F)c(-c3n[nH]c4ncccc34)n2)CC(C2(O)CCC2)N1 (centres unmarked) : reported Ki = ?
(A) > 700 nM

(Q) Entry Fc1cc(F)cc(CNc2ncc3nc(-c4c(Cl)cccc4Cl)n(CCC4CCNCC4)c3n2)c1 : reported Ki = ?
(A) < 1000 nM

* * *

Collected set of pKi measured with Protein kinase C theta type (Homo sapiens) across studies.
pKi: −log10 of the molar value.

Below are worked cases with known answers.
CC[C@H]1CN(c2cccc(-c3n[nH]c4ncccc34)n2)C[C@H](CC(C)C)N1 ... > 6.30
CNC(=O)CC1CN(c2ccc(C(F)(F)F)c(-c3n[nH]c4ncccc34)n2)CCN1 (stereo not shown) ... > 6.30

(Q) Entry O=c1[nH]c2cnc(NCC3CCNC3)nc2n1Cc1ccccc1C(F)(F)F (stereo not shown) : reported pKi = ?
(A) > 7.00

(Q) Entry Clc1cccc(Cl)c1-c1nc2cnc(NCc3ccccc3)nc2n1CC1CCNC1 (stereo not shown) : reported pKi = ?
(A) > 6.00

* * *

pKi: −log10 of the molar value.
Collected set of pKi measured with Protein kinase C theta type (Homo sapiens) across studies.

Cc1ccoc1C(=O)N1CCCN(c2cccc(C(=O)c3cccnc3N)n2)CC1 ... 5.55 to 6.30

(Q) Hi! What's the reported pKi for Fc1cccc(Cl)c1-c1nc2cnc(NCc3cccs3)nc2n1C[C@@H]1CCCNC1 on Protein kinase C theta type (Homo sapiens)?
(A) > 6.00

(Q) Hi! What's the reported pKi for Clc1cccc(Cl)c1-c1nc2cnc(NCc3cccs3)nc2n1CCC1CCNCC1 on Protein kinase C theta type (Homo sapiens)?
(A) > 6.00

(Q) Hi! What's the reported pKi for O=c1[nH]c2cnc(NCC3CCNC3)nc2n1Cc1ccccc1OC(F)(F)F (stereo not shown) on Protein kinase C theta type (Homo sapiens)?
(A) > 7.00

* * *

Collected set of Ki measured with Protein kinase C theta type (Homo sapiens, UniProt Q04759) across studies.

Below are worked cases with known answers.
CC(C)C[C@@]1(O)CN(c2ccc(C(F)(F)F)c(-c3n[nH]c4ncccc34)n2)CC[C@H]1N ... < 50 nM
CC(C)CC1(CNc2ccc(F)c(-c3n[nH]c4ncccc34)n2)CNC1 ... < 50 nM

(Q) Hi! What's the reported Ki for FC(F)(F)c1ccc(C2CCNCC2)nc1-c1n[nH]c2ncccc12 on Protein kinase C theta type (Homo sapiens, UniProt Q04759)?
(A) > 700 nM

(Q) Hi! What's the reported Ki for CC(C)(C)OC(=O)NC1CCN(c2cccc(C(=O)c3cc(Br)cnc3N)n2)CC1 on Protein kinase C theta type (Homo sapiens, UniProt Q04759)?
(A) 500 to 2800 nM

(Q) Hi! What's the reported Ki for O=c1[nH]c2ccc(NC[C@@H]3CCNC3)nc2n1Cc1c(Cl)cccc1Cl on Protein kinase C theta type (Homo sapiens, UniProt Q04759)?
(A) < 100 nM

(Q) Hi! What's the reported Ki for CC(CO)Nc1ccc(C(F)(F)F)c(-c2n[nH]c3ncccc23)n1 (centres unmarked) on Protein kinase C theta type (Homo sapiens, UniProt Q04759)?
(A) > 700 nM

(Q) Hi! What's the reported Ki for CCC[C@H]1CN(c2ccc(C(F)(F)F)c(C(=O)c3cccnc3N)n2)C[C@H](CC(C)C)N1 on Protein kinase C theta type (Homo sapiens, UniProt Q04759)?
(A) 500 to 2800 nM

* * *

Collected set of Ki measured with Protein kinase C theta type (Homo sapiens, UniProt Q04759) across studies.

Below are worked cases with known answers.
OCCNc1ccc(C(F)(F)F)c(-c2n[nH]c3ncccc23)n1 ... > 700 nM
CO[C@H]1CN(c2ccc(C(F)(F)F)c(-c3n[nH]c4ncccc34)n2)CC[C@H]1N ... < 500 nM
Fc1cccc(CNc2ncc3nc(-c4c(Cl)cccc4Cl)n(C[C@@H]4CCCNC4)c3n2)c1 ... < 100 nM

(Q) Entry CC(C)C(C)(O)C1CN(c2cc(C(F)(F)F)cc(-c3n[nH]c4ncccc34)n2)CCN1 (stereo not shown) : reported Ki = ?
(A) < 500 nM

* * *

Collected set of pKi measured with Protein kinase C theta type (Homo sapiens) across studies.
pKi: −log10 of the molar value.

Below are worked cases with known answers.
CC(C)(F)CC1CN(c2cccc(-c3n[nH]c4ncccc34)n2)CCN1 (stereo not shown) ... > 7.30
Fc1ccc(CNc2ncc3nc(-c4c(Cl)cccc4Cl)n(CC4CCNC4)c3n2)cc1Cl (stereo not shown) ... > 6.00
CC(C)C[C@H]1CN(c2cccc(-c3n[nH]c4ncccc34)n2)CC[C@@H]1O ... > 6.30
O=c1[nH]c2cnc(NC[C@H]3CCNC3)nc2n1Cc1ccccc1Cl ... > 7.00
CS(=O)(=O)NCC1CCCN(c2ccc(F)c(-c3n[nH]c4ncccc34)n2)C1 (stereo not shown) ... < 6.15

(Q) Hi! What's the reported pKi for CN(C)C(=O)CC1CN(c2ccc(C(F)(F)F)c(-c3n[nH]c4ncccc34)n2)CCN1 (stereo not shown) on Protein kinase C theta type (Homo sapiens)?
(A) < 6.15

(Q) Hi! What's the reported pKi for Nc1ncc(Br)cc1C(=O)c1cccc(N2CCCN(CCc3ccccc3)CC2)n1 on Protein kinase C theta type (Homo sapiens)?
(A) 5.55 to 6.30
